// provenance: patent US20230285514A1

target: human Glucagon receptor (GCGR) (human, UniProt P47871); assay: cell-based or functional assay
*1 amine or outer side, *2 acyl side, *3 side chain or, on linkers, in order; H or OH if unused. Bridges are numbered along the chain shown (N, C = ends). Where no end group is shown, it is not given here. [ ]: non-standard residue; d: D form. γGlu = O=C(O)[C@H](CCC(=O)[*:2])N[*:1]; Met(O2) = CS(=O)(=O)CC[C@H](N)C(=O)O; Nle = CCCC[C@H](N)C(=O)O; Aib = CC(C)(N)C(=O)O
experimental-endpoint: GCGR EC50 human (nM), cAMP activity assay
Give the quantity in nM, number only.

binder | reported
H[Aib]QGTFTSDKSKYLD[Aib]RAAQDFVKWL[Nle]ET-NH2 (lactam 24-28; not fully specified (residue 10); printed as HUQGTFTSDK(γEγEC16)SKYLDURAAQDFVK*WL-Nle-E*T-NH2) [TP842] | 0.248
H[Aib]QGTFTSDKSKYLDKRAAEDFVQWL[Nle]DT-NH2 (lactam 16-20; not fully specified (residue 10); printed as HUQGTFTSDK(γEγEC16)SKYLDK*RAAE*DFVQWL-Nle-DT-NH2) [TP836] | 0.281

Next up:
Incoming: Give the measured GCGR EC50 human (nM), cAMP activity assay of H[Aib]QGTFTSDKSKYLDKRAAEDFVQWL[Met(O2)]DTK(γGlu)-NH2 (lactam 16-20; not fully specified (residue 10); printed as HUQGTFTSDK(γEγEC16)SKYLDK*RAAE*DFVQWL2DTKγE-NH2) [TP844] .
Outgoing: 0.046
